target: Beta-3 adrenergic receptor (Homo sapiens)
Sequence (P13945 whole entry): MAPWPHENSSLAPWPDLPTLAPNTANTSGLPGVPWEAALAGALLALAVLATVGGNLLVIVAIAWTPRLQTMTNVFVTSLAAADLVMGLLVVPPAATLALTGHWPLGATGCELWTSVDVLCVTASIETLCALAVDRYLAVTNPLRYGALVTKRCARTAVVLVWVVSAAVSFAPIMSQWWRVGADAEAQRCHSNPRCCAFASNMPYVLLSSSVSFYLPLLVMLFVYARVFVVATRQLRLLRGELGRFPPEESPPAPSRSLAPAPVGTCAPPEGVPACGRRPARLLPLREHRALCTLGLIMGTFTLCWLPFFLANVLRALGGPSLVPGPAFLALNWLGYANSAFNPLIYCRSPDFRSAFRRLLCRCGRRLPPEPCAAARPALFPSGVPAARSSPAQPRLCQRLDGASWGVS
MEASURED_PARAMETER: EC50 (nM)

>>> data_value("O=C(O)c1cncc(-c2cccc(NCCNC[C@H](O)c3cccc(Cl)c3)c2)c1")
63.1
>>> data_value("COC(=O)c1cccc(-c2cccc(NCCNC[C@H](O)c3cccc(Cl)c3)c2)c1")
158
>>> data_value("O=C(O)c1cccc(-c2cccc(NCCNC[C@H](O)c3cccc(Cl)c3)c2)c1 [SOLABEGRON]")
3.98
>>> data_value("O=C(O)c1cccc(-c2cccc(NCCNC[C@H](O)c3cccc(Cl)c3)c2)n1")
39.8
>>> data_value("O=C(O)c1ccncc1-c1cccc(NCCNC[C@H](O)c2cccc(Cl)c2)c1")
0.1
>>> data_value("C[C@H](CNc1cccc(-c2ncccc2C(=O)O)c1)NC[C@H](O)c1cccc(Cl)c1")
31.6
>>> data_value("C[C@H](CNc1cccc(-c2ccccc2C(=O)O)c1)NC[C@H](O)c1cccc(Cl)c1")
0.251
>>> data_value("C[C@H](CNc1cccc(-c2ccc(C(=O)O)cc2C(=O)O)c1)NC[C@H](O)c1cccc(Cl)c1")
0.2
>>> data_value("Cc1ccc(C(=O)O)cc1-c1cccc(NCCNC[C@H](O)c2cccc(Cl)c2)c1")
1.58
>>> data_value("C[C@H](CNc1cccc(-c2cccc(C(=O)O)c2)c1)NC[C@H](O)c1cccc(Cl)c1")
0.1
>>> data_value("C[C@H](CNc1cccc(-c2ccc(C(=O)O)cc2)c1)NC[C@H](O)c1cccc(Cl)c1")
31.6
